biological target: HDAC6 (Homo sapiens (Human), UniProt Q9UBN7); experiment: HDAC6 enzymatic assay; format: biochemical; conditions: read-out: Human HDAC6 IC50
Sequence (Q9UBN7 whole entry): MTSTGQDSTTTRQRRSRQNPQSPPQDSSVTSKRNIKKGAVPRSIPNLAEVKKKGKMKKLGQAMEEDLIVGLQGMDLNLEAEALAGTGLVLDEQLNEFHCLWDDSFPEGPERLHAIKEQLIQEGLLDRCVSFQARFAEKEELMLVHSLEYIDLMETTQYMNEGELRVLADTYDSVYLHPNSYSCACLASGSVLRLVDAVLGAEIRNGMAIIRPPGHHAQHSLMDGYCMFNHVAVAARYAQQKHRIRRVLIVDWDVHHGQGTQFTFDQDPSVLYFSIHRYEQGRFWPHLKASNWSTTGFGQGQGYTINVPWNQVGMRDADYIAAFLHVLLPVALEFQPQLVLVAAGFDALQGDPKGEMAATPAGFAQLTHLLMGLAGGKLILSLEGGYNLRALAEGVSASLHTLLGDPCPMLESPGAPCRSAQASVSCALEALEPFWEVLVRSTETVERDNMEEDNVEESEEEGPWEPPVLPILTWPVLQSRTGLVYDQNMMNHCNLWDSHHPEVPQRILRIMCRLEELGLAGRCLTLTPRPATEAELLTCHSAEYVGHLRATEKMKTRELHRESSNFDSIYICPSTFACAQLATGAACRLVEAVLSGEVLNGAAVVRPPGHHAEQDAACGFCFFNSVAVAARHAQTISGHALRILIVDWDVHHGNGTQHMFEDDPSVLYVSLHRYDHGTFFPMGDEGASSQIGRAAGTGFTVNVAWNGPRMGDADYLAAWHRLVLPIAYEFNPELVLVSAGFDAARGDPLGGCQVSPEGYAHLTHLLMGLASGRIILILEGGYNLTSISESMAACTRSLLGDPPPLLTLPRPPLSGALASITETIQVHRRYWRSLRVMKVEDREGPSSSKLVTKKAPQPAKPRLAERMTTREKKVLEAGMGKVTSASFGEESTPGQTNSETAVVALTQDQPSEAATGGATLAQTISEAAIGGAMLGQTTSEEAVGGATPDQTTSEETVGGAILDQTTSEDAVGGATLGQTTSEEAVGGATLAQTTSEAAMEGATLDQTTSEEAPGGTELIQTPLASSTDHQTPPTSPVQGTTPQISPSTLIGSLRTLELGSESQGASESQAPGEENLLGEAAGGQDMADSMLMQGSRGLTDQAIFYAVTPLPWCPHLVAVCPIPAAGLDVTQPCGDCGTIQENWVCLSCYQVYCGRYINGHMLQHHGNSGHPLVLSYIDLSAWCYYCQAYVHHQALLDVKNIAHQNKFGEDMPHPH
Assay Endpoint: IC50 (nM)

[a] CS(=O)(=O)NCC(Nc1ncc(-c2nnc(C(F)F)o2)cn1)c1ccc(OC(F)F)cc1 (single isomer, unassigned) [115(+)]
[b] FC(F)c1nnc(-c2cnc(NC3(C4CCCCC4)CC3)nc2)o1 [Example 27]
API: POST /compare with a and b ; response names the item with higher IC50. Provide the label of your selected option as the answer.
b

[a] Fc1ccc(Cl)c(C2(Nc3ncc(-c4nnc(C(F)F)o4)cn3)CC2)c1 [Example 80]
[b] O=S(=O)(C1CC1)N(CC(Nc1ncc(-c2nnc(C(F)F)o2)cn1)c1ccc(OC(F)F)cc1F)CC(F)(F)F (stereo not drawn) [152(+)]
Lowest IC50? choose a or b Provide the label of your selected option as the answer.
a
(a: 23 nM, b: 280 nM)

[I] COc1ccccc1C1(Nc2ncc(-c3nnc(C(F)F)o3)cn2)CC1 [Example 46]
[II] CC(=O)N(C)CC(Nc1ncc(-c2nnc(C(F)F)o2)cn1)c1ccc(F)cc1 (single isomer, unassigned) [166(−)]
[III] Fc1ccc(C(Cn2cnc(C(F)(F)F)c2)Nc2ncc(-c3nnc(C(F)F)o3)cn2)cc1 (single isomer, unassigned) [175(+)]
[IV] O=S(=O)(C1CC1)N(CC(Nc1ncc(-c2nnc(C(F)F)o2)cn1)c1ccc(OC(F)(F)F)cc1)CC(F)(F)F (stereo not drawn) [160(+)]
[V] Fc1ccc(C(CC(F)(F)F)Nc2ncc(-c3nnc(C(F)F)o3)cn2)cc1 (stereo not drawn) [Example 13]
Parameters: sort_field (IC50), sort_dir (desc). Answer by listing the labels in the requested order.
IV, II, III, V, I
(IV: 580 nM, II: 360 nM, III: 160 nM, V: 36 nM, I: 23 nM)

[a] Fc1ccc(F)c(C2(Nc3ncc(-c4nnc(C(F)F)o4)cn3)CC2)c1 [Example 61]
[b] O=S(=O)(C1CC1)N(CC(Nc1ncc(-c2nnc(C(F)F)o2)cn1)c1ccc(F)cc1)CC(F)(F)F (single isomer, unassigned) [165(−)]
API: POST /compare with a and b ; response names the item with higher IC50. Provide the label of your selected option as the answer.
b

###

assay: Mouse Pharmacokinetics, oral single dose; format: in vivo, male Swiss Albino mice; settings: male, Swiss Albino, plasma, 5 mg/kg, formulation by footnote: a 20% CremEL in H20, b 1% CMC in water, c 2% DMSO, 0.2% Tween80, 97.8% of 1% CMC
Assay Endpoint: half-life (h)

[A] CS(=O)(=O)NCC(Nc1ncc(-c2nnc(C(F)F)o2)cn1)c1ccc(OC(F)F)cc1F (single isomer, unassigned) [116(+)]
[B] CCS(=O)(=O)NCC(Nc1ncc(-c2nnc(C(F)F)o2)cn1)c1ccc(F)cc1 (stereo not drawn)
[C] O=S(=O)(NCC(Nc1ncc(-c2nnc(C(F)F)o2)cn1)c1ccc(OC(F)F)cc1F)C1CC1 (stereo not drawn) [150(+)]
[D] CS(=O)(=O)NCC(Nc1ncc(-c2nnc(C(F)F)o2)cn1)c1ccc(OC(F)(F)F)cc1 (single isomer, unassigned) [122(+)]
Ascending by half-life, please. Answer by listing the labels in the requested order.
B, A, C, D
(B: 2.3 h, A: 4.5 h, C: 9.3 h, D: 18.4 h)

[a] CS(=O)(=O)NCC(Nc1ncc(-c2nnc(C(F)F)o2)cn1)c1ccc(OC(F)F)cc1 (single isomer, unassigned) [115(+)]
[b] CS(=O)(=O)NCC(Nc1ncc(-c2nnc(C(F)F)o2)cn1)c1ccc(F)cc1 (single isomer, unassigned) [38(+)]
Lowest half-life? choose a or b Provide the label of your selected option as the answer.
b
(b: 2.7 h, a: 4.3 h)

[P] CN(CC(Nc1ncc(-c2nnc(C(F)F)o2)cn1)c1ccc(F)cc1)S(C)(=O)=O (single isomer, unassigned) [113(+)]
[Q] CS(=O)(=O)NCC(Nc1ncc(-c2nnc(C(F)F)o2)cn1)c1ccc(Cl)cc1 (single isomer, unassigned) [173(+)]
[R] CS(=O)(=O)N(CC(Nc1ncc(-c2nnc(C(F)F)o2)cn1)c1ccc(F)cc1)CC(F)(F)F (single isomer, unassigned) [118(+)]
Parameters: sort_field (half-life), sort_dir (desc). Answer by listing the labels in the requested order.
R, Q, P
